Ref: ChEMBL document CHEMBL3988442

Kindly supply the reported Percent Effect values for the records listed here.
target: Shiga toxin 2 (Escherichia coli O157:H7) (UniProt P09385+P09386); experiment: E. coli 0.157:H7 Shiga Toxin SOP - stx2 screening assay; format: functional; parameters: scale not given: direction of the effect not stated beside the values; conditions: 30 µM
Give bare numbers, in %.

compound=CN1CCN(Cc2nc3ccccc3[nH]2)[C@H]2CS(=O)(=O)C[C@H]21 reported_result=-6.1
compound=Cc1ccc(CNC2CCN(CCc3ccncc3)CC2)s1 reported_result=-53.8
compound=CNC(=O)c1nc2c(s1)CCN(C(=O)c1cccnc1)CC2 reported_result=-18.2

# batch: return Percent Effect for each of the 7 compounds below
1. Cc1cc(C)n(CC2CN(Cc3nnsc3Cl)CCO2)n1 (centres undefined)
2. CN(CCCNc1cc(N2CCCC2CO)ncn1)S(C)(=O)=O (centres undefined)
3. COc1ccc(Cl)cc1C(=O)N1CCOC2(CNCCOC2)C1 (centres undefined)
4. Cc1cccc(CN2C(=O)CO[C@@H]3CN(CCO)C[C@H]32)c1
5. CC(C)CN1C(=O)C2(CCN(Cc3nccs3)C2)c2ccccc21 (centres undefined)
6. CN1CCc2c(C#N)c(NCc3ccco3)n3cnnc3c2C1
7. CN1CCN(Cc2ccccc2CNC(=O)c2ccc(Br)cc2)CC1

Response:
[31.3, -30, 11.2, 2.07, -65.4, -1.51, 0.652]

Hello, I would appreciate it if you could give Percent Effect for each entry below.
1. COc1ccc(CCN2CCCC(CN(C)Cc3ccc(C)o3)C2)cc1 (centres undefined)
2. CC(C)CN1C[C@H]2C[C@H](C(=O)Nc3cccnc3)[C@@H](C1)O2
3. Cc1ccc(CN2CCCC3(CCN(S(C)(=O)=O)C3)C2)o1 (centres undefined)
4. COc1ccccc1C(=O)N1CCCC1Cn1cc(C)cn1 (centres undefined)

Response:
-11.5
-15.6
3.27
26.5
